This collection of values is drawn from patent US8710062B2.

# target.under.test: Insulin Receptor (Homo sapiens)
# Sequence (P06213 28-1382): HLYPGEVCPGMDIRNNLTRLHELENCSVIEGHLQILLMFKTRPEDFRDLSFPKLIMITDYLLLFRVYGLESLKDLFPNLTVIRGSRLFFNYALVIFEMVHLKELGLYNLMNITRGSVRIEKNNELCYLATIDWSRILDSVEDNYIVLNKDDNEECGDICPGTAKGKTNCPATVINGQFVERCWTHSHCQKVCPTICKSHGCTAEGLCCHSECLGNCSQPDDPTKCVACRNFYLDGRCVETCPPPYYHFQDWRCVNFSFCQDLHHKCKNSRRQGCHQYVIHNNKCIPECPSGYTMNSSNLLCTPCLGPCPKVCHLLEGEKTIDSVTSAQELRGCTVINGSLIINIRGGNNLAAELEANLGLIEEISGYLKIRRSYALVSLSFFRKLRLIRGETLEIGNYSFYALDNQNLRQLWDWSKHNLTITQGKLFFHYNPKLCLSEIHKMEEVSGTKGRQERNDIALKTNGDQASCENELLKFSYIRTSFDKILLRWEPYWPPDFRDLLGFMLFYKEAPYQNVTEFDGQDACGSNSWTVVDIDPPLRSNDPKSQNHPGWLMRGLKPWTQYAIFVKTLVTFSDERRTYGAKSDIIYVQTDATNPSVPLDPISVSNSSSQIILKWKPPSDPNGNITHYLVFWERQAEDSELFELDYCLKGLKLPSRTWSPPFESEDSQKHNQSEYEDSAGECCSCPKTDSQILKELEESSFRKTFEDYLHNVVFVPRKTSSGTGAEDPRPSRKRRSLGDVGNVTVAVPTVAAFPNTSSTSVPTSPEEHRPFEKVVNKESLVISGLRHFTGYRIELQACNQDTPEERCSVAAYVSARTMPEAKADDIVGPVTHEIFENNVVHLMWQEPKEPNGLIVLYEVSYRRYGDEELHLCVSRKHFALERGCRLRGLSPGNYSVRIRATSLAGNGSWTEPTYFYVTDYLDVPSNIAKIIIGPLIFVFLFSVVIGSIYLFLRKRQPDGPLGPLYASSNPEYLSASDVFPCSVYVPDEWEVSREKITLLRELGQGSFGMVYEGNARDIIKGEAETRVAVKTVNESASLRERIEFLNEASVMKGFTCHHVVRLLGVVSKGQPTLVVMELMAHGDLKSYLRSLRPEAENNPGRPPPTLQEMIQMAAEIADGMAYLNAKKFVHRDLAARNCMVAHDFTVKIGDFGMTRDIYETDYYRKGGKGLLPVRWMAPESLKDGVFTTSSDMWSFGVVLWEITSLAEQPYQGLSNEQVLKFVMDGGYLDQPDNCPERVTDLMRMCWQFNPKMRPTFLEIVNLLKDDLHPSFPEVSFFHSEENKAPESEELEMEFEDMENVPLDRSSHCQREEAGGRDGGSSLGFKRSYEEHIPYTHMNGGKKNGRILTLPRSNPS
pIC50: −log10 of the molar value.
measured.quantity: pIC50

                                   compound  quantitative_readout
0  O=c1[nH]/c(=C\c2ccc(OCc3ccncc3)cn2)c(=O)[nH]/c1=C\c1ccccc1 [Compound 2]                  5.74

====

Target sequence: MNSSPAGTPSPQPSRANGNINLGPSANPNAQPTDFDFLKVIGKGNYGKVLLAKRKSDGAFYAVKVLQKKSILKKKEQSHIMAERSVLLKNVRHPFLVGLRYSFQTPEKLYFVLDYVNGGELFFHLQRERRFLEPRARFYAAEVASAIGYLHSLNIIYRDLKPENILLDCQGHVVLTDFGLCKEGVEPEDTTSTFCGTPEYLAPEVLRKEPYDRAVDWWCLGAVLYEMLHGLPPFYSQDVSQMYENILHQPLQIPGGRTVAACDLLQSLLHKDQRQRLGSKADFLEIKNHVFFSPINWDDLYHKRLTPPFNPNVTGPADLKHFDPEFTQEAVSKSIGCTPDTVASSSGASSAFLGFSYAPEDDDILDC
pIC50: −log10 of the molar value.
measured.quantity: pIC50

>>> print(df.to_string())
                                   compound  quantitative_readout
0  O=c1[nH]/c(=C\c2ccc(OCc3ccncc3)cn2)c(=O)[nH]/c1=C\c1ccccc1 [Compound 2]                  5.45
